Each entry below carries its reported melting point.

A selection of reference data follows.
[
  {
    "compound": "COc1nc(OC)c(C=CC(C)=O)c(N(C)C)n1",
    "melting point": "116 °C"
  },
  {
    "compound": "CC(C)n1nc(-c2nc(C3=CCN(C)CC3)c(N)nc2-c2ccccc2)ccc1=O",
    "melting point": "209 to 211 °C"
  },
  {
    "compound": "O=C1C=NC(c2cccs2)(C(F)(F)F)O1 (stereo not given)",
    "melting point": "62 to 65 °C"
  },
  {
    "compound": "O=C(N[C@H]1CCN(CCc2ccc(F)cc2)C1)C1=c2ccccc2=CC=C2CC=CC=C21",
    "melting point": "127 to 128 °C"
  },
  {
    "compound": "CS(=O)(=O)Nc1ccccc1OCCCN1CCC(OC(c2ccsc2)c2ccsc2)CC1",
    "melting point": "92 to 94 °C"
  }
]

Query string: Could you tell me which melting point is on file for CN(C)C=Nc1c(Cl)cc(N=Cc2ccc(C#N)cc2)cc1Cl ?
Result string: 169 to 170 °C

Query string: Could you tell me which melting point is on file for CCOC(=O)C1=C(COCC#N)NC(C)=C(C(=O)OC)C1c1ccccc1Cl (stereo not given) ?
Result string: 128 to 130 °C

Query string: Could you tell me which melting point is on file for Cn1c(COc2ccc(CC3SC(=O)NC3=O)cc2)nc2ccc(Oc3ccc(NC(=O)c4cccc(Cl)c4)cc3)cc21 (stereo not given) ?
Result string: 238 to 239 °C

Query string: Could you tell me which melting point is on file for COc1cc(C=C(C)[N+](=O)[O-])ccc1OCC(=O)O ?
Result string: 116 to 117 °C

Query string: Could you tell me which melting point is on file for CS(=O)(=O)c1ccc(C(CC2CCCC2)C(=O)Nc2nccs2)cc1C#N (stereo not given) ?
Result string: 145 to 148 °C
